The origin of these recorded values is ChEMBL document CHEMBL4425158.

- Test target: Cytochrome P450 2D6 (Homo sapiens)
- Sequence (P10635 whole entry): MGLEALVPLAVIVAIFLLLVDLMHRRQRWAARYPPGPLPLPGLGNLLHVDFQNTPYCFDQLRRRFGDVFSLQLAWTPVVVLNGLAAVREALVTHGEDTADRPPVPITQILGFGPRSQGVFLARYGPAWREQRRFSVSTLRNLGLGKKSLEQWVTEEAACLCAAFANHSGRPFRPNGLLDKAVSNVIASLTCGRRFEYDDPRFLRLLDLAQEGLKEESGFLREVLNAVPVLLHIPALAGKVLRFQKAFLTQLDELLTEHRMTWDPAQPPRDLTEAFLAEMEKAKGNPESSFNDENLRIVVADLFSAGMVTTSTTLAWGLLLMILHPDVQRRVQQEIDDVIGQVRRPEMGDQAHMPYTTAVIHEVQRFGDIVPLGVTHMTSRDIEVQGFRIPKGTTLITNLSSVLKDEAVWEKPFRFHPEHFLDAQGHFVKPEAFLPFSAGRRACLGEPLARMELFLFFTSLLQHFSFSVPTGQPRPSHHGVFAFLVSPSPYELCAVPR
Readout kind: IC50

Given the compound O=C(c1cc(F)cc(Cl)c1)N1CCn2nc(-c3ccc(F)cn3)cc2C1 and test system Cytochrome P450 2D6 (Homo sapiens), the measured IC50 is > 40 µM

###

- Test target: P-gp (ABCB1) (Homo sapiens)
- Sequence (P08183 whole entry): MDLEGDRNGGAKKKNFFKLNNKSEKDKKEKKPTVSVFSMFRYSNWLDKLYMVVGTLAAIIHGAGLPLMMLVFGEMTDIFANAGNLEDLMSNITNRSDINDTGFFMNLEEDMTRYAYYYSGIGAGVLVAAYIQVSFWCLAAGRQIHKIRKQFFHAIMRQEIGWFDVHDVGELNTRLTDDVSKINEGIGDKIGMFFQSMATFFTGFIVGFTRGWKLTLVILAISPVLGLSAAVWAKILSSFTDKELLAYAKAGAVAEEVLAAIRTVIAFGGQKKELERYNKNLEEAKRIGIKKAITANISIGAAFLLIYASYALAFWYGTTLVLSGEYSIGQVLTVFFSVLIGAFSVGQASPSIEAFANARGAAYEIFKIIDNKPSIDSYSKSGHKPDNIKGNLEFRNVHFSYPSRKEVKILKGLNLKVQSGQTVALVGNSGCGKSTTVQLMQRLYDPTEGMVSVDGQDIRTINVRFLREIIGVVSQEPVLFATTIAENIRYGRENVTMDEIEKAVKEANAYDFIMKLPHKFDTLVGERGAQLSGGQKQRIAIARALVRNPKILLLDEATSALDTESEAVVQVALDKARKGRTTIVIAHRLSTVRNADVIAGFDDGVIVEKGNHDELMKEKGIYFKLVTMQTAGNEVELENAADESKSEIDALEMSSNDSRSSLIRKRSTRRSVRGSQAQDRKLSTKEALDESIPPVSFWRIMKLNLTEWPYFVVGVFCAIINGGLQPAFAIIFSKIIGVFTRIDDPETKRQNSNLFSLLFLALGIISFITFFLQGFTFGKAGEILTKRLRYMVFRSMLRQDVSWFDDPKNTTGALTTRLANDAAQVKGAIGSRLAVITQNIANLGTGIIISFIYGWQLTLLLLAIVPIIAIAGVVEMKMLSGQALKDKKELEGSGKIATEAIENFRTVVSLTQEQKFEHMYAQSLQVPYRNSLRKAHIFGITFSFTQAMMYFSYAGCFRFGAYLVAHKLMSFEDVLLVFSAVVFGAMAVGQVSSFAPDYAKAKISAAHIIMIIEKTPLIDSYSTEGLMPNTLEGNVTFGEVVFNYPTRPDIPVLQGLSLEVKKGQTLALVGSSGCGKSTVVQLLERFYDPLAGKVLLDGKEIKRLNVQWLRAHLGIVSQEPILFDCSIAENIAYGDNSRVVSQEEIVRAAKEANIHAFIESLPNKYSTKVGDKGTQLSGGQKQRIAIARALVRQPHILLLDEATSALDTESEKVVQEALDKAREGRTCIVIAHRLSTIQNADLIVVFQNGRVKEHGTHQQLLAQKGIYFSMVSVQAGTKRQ
- Assay: Substrate activity at P-gp (unknown origin) assessed as efflux ratio
- Format: ADME
- Details: not told
Readout kind: efflux ratio

For the molecule O=C(c1cc(F)cc(Cl)c1)N1CCn2nc(-c3ccc(F)cn3)cc2C1 , the measured efflux ratio on P-gp (ABCB1) (Homo sapiens) was 1.2

###

- Assay: AUC(0 to infinity) in rat plasma at 10 mg/kg, po after 15 mins to 24 hrs
- Assay type: ADME, organism-based
- Design: dose 10 mg/kg, route oral, time infinity
Readout kind: AUC(0-inf) (ng·h/mL)
Could you give me the number in ng·h/mL? Just the number is fine.

Per the records, this molecule ( O=C(c1cc(F)cc(Cl)c1)N1CCn2nc(-c3ccc(F)cn3)cc2C1 ) has AUC(0-inf) equal to 68700
